- Tested on: Scenedesmus acutus
- assay_protocol: Herbicidal activity against Scenedesmus acutus assessed as ethane production per ml of packed-cell volume at 10^-6 M autotrophically for 20 hr by phytotoxicity assay (reference value: 0.28 nM/ml pcv)
- Assay type: functional
For each entry below, report its Activity value.
Report only the number, with the unit nM understood.

Ask: Which Activity is reported for this compound? `N#Cc1cc(I)c(O)c(I)c1`
Result: 0.22

Ask: Recorded Activity of CCC(C)c1cc([N+](=O)[O-])cc([N+](=O)[O-])c1O (centres undefined) , please.
Result: 0.18

Ask: Would you mind telling me what Activity value was observed for `O=C1C2=C(CCCC2)C(=O)N1c1ccc(Cl)cc1` ?
Result: 8.77

Ask: # input compound: `NC1=C(Cl)C(=O)c2ccccc2C1=O` ; wanted: its Activity
Result: 0.23
